// endpoint IC50 / system CDKL3(h) (Homo sapiens)
outcome-measure: IC50

[[record]]
molecule = "Cn1ccc(Nc2ccc3scc(-c4ccncc4)c3n2)n1"
outcome_measure = "IC50"
reported = "100 to 499 nM"

[[record]]
molecule = "Cn1ccc(-c2cc(Cl)c3scc(-c4ccncc4)c3n2)n1"
outcome_measure = "IC50"
reported = "500 to 3000 nM"

[[record]]
molecule = "Cn1cc(-c2ccc3scc(C4=CCNCC4)c3n2)cn1"
outcome_measure = "IC50"
reported = "500 to 3000 nM"

[[record]]
molecule = "Cn1cc(-c2csc3ccc(Oc4ccccc4)nc23)cn1"
outcome_measure = "IC50"
reported = "3000 to 10000 nM"

[[record]]
molecule = "Cn1cc(-c2ccc3scc(-c4cnn(Cc5ccccc5)c4)c3n2)cn1"
outcome_measure = "IC50"
reported = "500 to 3000 nM"

[[record]]
molecule = "Cn1cc(-c2ccc3scc(-c4ccncc4)c3n2)cn1"
outcome_measure = "IC50"
reported = "100 to 499 nM"

[[record]]
molecule = "Cc1cc2scc(-c3ccncc3)c2nc1-c1ccn(C)n1"
outcome_measure = "IC50"
reported = "3000 to 10000 nM"

[[record]]
molecule = "Cn1cc(-c2ccc3scc(C(O)c4ccccc4)c3n2)cn1 (stereo not drawn)"
outcome_measure = "IC50"
reported = "100 to 499 nM"

[[record]]
molecule = "Cn1cc(-c2ccc3scc(-c4ccncc4)c3n2)nn1"
outcome_measure = "IC50"
reported = "3000 to 10000 nM"

[[record]]
molecule = "Cn1ncc(-c2ccc3scc(-c4ccncc4)c3n2)c1CC1CC1"
outcome_measure = "IC50"
reported = "500 to 3000 nM"

[[record]]
molecule = "Cn1cc(-c2ccc3scc(Nc4ccccc4)c3n2)cn1"
outcome_measure = "IC50"
reported = "20 to 99 nM"

[[record]]
molecule = "Cn1cncc1-c1ccc2scc(-c3ccncc3)c2n1"
outcome_measure = "IC50"
reported = "500 to 3000 nM"

[[record]]
molecule = "Cn1cc(-c2ccc3scc(-c4cccnc4)c3n2)cn1"
outcome_measure = "IC50"
reported = "100 to 499 nM"

[[record]]
molecule = "Cn1cc(-c2ccc3scc(-c4ccc5ncnn5c4)c3n2)cn1"
outcome_measure = "IC50"
reported = "100 to 499 nM"

[[record]]
molecule = "c1ccc(-c2csc3ccc(-c4ccoc4)nc23)cc1"
outcome_measure = "IC50"
reported = "3000 to 10000 nM"

[[record]]
molecule = "c1ccc(Cn2cc(-c3ccc4scc(-c5ccncc5)c4n3)cn2)cc1"
outcome_measure = "IC50"
reported = "500 to 3000 nM"

[[record]]
molecule = "Cn1cc(-c2ccc3scc(-c4ccnc(C#N)c4)c3n2)cn1"
outcome_measure = "IC50"
reported = "100 to 499 nM"

[[record]]
molecule = "CC(C)n1cc(-c2ccc3scc(-c4ccncc4)c3n2)cn1"
outcome_measure = "IC50"
reported = "3000 to 10000 nM"


----------
// endpoint IC50 / system Haspin (h) (Homo sapiens, UniProt Q8TF76)
outcome-measure: IC50

[[record]]
sample_smiles = "Cn1cc(-c2ccc3scc(-c4ccc5nncn5c4)c3n2)cn1"
subject_of_test = "Haspin (h) (Homo sapiens, UniProt Q8TF76)"
reported = "100 to 499 nM"

[[record]]
sample_smiles = "c1cnc(-c2ccc3scc(-c4ccncc4)c3n2)nc1"
subject_of_test = "Haspin (h) (Homo sapiens, UniProt Q8TF76)"
reported = "3000 to 10000 nM"

[[record]]
sample_smiles = "Cn1cc(-c2ccc3scc(-c4ccncc4F)c3n2)cn1"
subject_of_test = "Haspin (h) (Homo sapiens, UniProt Q8TF76)"
reported = "100 to 499 nM"

[[record]]
sample_smiles = "Cn1cc(-c2ccc3scc(-c4cncnc4)c3n2)cn1"
subject_of_test = "Haspin (h) (Homo sapiens, UniProt Q8TF76)"
reported = "100 to 499 nM"


----------
pIC50: −log10 of the molar value.
// endpoint pIC50 / system TAF1L(h) (Homo sapiens)
outcome-measure: pIC50

[[record]]
molecule = "Cn1cc(-c2ccc3scc(-c4ccnc(C#N)c4)c3n2)cn1"
outcome_measure = "pIC50"
reported = "6.30 to 7.00"

[[record]]
molecule = "Cc1cc(-c2csc3ccc(-c4cnn(C)c4)nc23)cc(C)n1 [Preparative Example 30]"
outcome_measure = "pIC50"
reported = "6.30 to 7.00"

[[record]]
molecule = "Cc1sc2ccc(-c3cnn(C)c3)nc2c1-c1ccncc1 [Preparative Example 142]"
outcome_measure = "pIC50"
reported = "5.52 to 6.30"

[[record]]
molecule = "Cc1nsc(-c2csc3ccc(-c4cnn(C)c4)nc23)n1 [Preparative Example 71]"
outcome_measure = "pIC50"
reported = "6.30 to 7.00"

[[record]]
molecule = "Cn1cc(-c2ccc3scc(-c4ccncc4C#N)c3n2)cn1 [Preparative Example 34]"
outcome_measure = "pIC50"
reported = "5.52 to 6.30"

[[record]]
molecule = "Cn1cc(-c2ccc3scc(C4=CCNCC4)c3n2)cn1 [Preparative Example 9]"
outcome_measure = "pIC50"
reported = "5.52 to 6.30"

[[record]]
molecule = "Cn1cc(-c2ccc3scc(-c4ccncc4)c3n2)nn1 [Preparative Example 93]"
outcome_measure = "pIC50"
reported = "5.52 to 6.30"


----------
// endpoint IC50 / system UniProt:Q8TF76
outcome-measure: IC50

[[record]]
sample_smiles = "Cn1ccc(-c2ccc3scc(-c4ccc5ncnn5c4)c3n2)n1"
subject_of_test = "UniProt:Q8TF76"
outcome_measure = "IC50"
reported = "100 to 499 nM"

[[record]]
sample_smiles = "c1cnc2c(-c3ccc4scc(-c5ccncc5)c4n3)cnn2c1"
subject_of_test = "UniProt:Q8TF76"
outcome_measure = "IC50"
reported = "500 to 3000 nM"

[[record]]
sample_smiles = "Cn1cc(-c2ccc3scc(-c4cnn(Cc5ccccc5)c4)c3n2)cn1"
subject_of_test = "UniProt:Q8TF76"
outcome_measure = "IC50"
reported = "100 to 499 nM"

[[record]]
sample_smiles = "Cn1cc(-c2ccc3scc(-c4ccnc(N)c4)c3n2)cn1"
subject_of_test = "UniProt:Q8TF76"
outcome_measure = "IC50"
reported = "20 to 99 nM"

[[record]]
sample_smiles = "c1cc(-c2csc3ccc(Nc4cc[nH]n4)nc23)ccn1"
subject_of_test = "UniProt:Q8TF76"
outcome_measure = "IC50"
reported = "20 to 99 nM"

[[record]]
sample_smiles = "Cc1cc2scc(-c3ccncc3)c2nc1-c1cnn(C)c1"
subject_of_test = "UniProt:Q8TF76"
outcome_measure = "IC50"
reported = "500 to 3000 nM"

[[record]]
sample_smiles = "CCOC(=O)c1cc(Nc2ccc3scc(-c4ccncc4)c3n2)nn1C"
subject_of_test = "UniProt:Q8TF76"
outcome_measure = "IC50"
reported = "3000 to 10000 nM"

[[record]]
sample_smiles = "CCOC(=O)c1cn(C)nc1Nc1ccc2scc(-c3ccncc3)c2n1"
subject_of_test = "UniProt:Q8TF76"
outcome_measure = "IC50"
reported = "3000 to 10000 nM"


----------
Reported pIC50 is given for each of the following molecules.
# subject-of-test: UniProtKB P11309
# Sequence (P11309 whole entry): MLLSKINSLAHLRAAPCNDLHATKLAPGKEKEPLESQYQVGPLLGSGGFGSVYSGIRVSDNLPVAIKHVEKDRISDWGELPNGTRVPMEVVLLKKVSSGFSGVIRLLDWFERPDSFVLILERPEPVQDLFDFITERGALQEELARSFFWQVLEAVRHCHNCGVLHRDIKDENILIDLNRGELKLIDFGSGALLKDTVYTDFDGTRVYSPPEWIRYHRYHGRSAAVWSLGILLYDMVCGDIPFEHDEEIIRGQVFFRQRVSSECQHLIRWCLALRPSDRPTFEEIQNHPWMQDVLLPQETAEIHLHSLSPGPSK
pIC50: −log10 of the molar value.
outcome-measure: pIC50

[[record]]
molecule = "Cn1cc(-c2ccc3scc(-c4cnn(Cc5ccccc5)c4)c3n2)cn1"
outcome_measure = "pIC50"
reported = "7.00 to 7.70"

[[record]]
molecule = "FC(F)(F)n1cc(-c2ccc3scc(-c4ccncc4)c3n2)cn1"
outcome_measure = "pIC50"
reported = "5.00 to 5.52"

[[record]]
molecule = "Cn1cc(-c2ccc3scc(-c4ccnc(F)c4)c3n2)cn1"
outcome_measure = "pIC50"
reported = "6.30 to 7.00"

[[record]]
molecule = "Cn1cc(-c2ccc3scc(C(O)c4ccccc4)c3n2)cn1 (stereo not drawn)"
outcome_measure = "pIC50"
reported = "5.52 to 6.30"

[[record]]
molecule = "CCn1cc(-c2ccc3scc(-c4ccncc4)c3n2)cn1"
outcome_measure = "pIC50"
reported = "5.52 to 6.30"

[[record]]
molecule = "Cn1ncc(-c2ccc3scc(-c4ccncc4)c3n2)n1"
outcome_measure = "pIC50"
reported = "5.00 to 5.52"

[[record]]
molecule = "Cn1cc(-c2ccc3scc(C4=CCNCC4)c3n2)cn1"
outcome_measure = "pIC50"
reported = "5.52 to 6.30"

[[record]]
molecule = "Cn1cc(-c2ccc3scc(-c4ccncc4)c3n2)cn1"
outcome_measure = "pIC50"
reported = "6.30 to 7.00"

[[record]]
molecule = "COc1cc(-c2csc3ccc(-c4cnn(C)c4)nc23)ccn1"
outcome_measure = "pIC50"
reported = "6.30 to 7.00"

[[record]]
molecule = "Cn1ccc(Nc2ccc3scc(-c4ccncc4)c3n2)n1"
outcome_measure = "pIC50"
reported = "5.52 to 6.30"

[[record]]
molecule = "Cc1cc(-c2csc3ccc(-c4cnn(C)c4)nc23)cc(C)n1"
outcome_measure = "pIC50"
reported = "6.30 to 7.00"

[[record]]
molecule = "c1ccc(Cn2cc(-c3ccc4scc(-c5ccncc5)c4n3)cn2)cc1"
outcome_measure = "pIC50"
reported = "6.30 to 7.00"

[[record]]
molecule = "Cc1nsc(-c2csc3ccc(-c4cnn(C)c4)nc23)n1"
outcome_measure = "pIC50"
reported = "6.30 to 7.00"

[[record]]
molecule = "Cn1cc(-c2ccc3scc(-c4ccc5ncnn5c4)c3n2)cn1"
outcome_measure = "pIC50"
reported = "6.30 to 7.00"

[[record]]
molecule = "c1cc(-c2csc3ccc(Nc4cc[nH]n4)nc23)ccn1"
outcome_measure = "pIC50"
reported = "5.52 to 6.30"

[[record]]
molecule = "Cn1cc(-c2ccc3scc(-c4ccnc(C#N)c4)c3n2)cn1"
outcome_measure = "pIC50"
reported = "5.52 to 6.30"

[[record]]
molecule = "Cn1cc(-c2ccc3scc(Nc4ccccc4)c3n2)cn1"
outcome_measure = "pIC50"
reported = "6.30 to 7.00"

[[record]]
molecule = "Cn1cc(-c2ccc3scc(-c4ccnc(CN)c4)c3n2)cn1"
outcome_measure = "pIC50"
reported = "6.30 to 7.00"

